molecular target: furin, P09958; assay: furin cleavage Z-score vs untreated control; higher = more cleavage, active = 3.5 or more, inactive = 1 or less, 8 variable residues between constant flanks; settings: 30 min;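 note: purified furin at 1:10 enzyme:substrate in 50 mM HEPES pH 7.5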
Sequence (P09958 whole entry): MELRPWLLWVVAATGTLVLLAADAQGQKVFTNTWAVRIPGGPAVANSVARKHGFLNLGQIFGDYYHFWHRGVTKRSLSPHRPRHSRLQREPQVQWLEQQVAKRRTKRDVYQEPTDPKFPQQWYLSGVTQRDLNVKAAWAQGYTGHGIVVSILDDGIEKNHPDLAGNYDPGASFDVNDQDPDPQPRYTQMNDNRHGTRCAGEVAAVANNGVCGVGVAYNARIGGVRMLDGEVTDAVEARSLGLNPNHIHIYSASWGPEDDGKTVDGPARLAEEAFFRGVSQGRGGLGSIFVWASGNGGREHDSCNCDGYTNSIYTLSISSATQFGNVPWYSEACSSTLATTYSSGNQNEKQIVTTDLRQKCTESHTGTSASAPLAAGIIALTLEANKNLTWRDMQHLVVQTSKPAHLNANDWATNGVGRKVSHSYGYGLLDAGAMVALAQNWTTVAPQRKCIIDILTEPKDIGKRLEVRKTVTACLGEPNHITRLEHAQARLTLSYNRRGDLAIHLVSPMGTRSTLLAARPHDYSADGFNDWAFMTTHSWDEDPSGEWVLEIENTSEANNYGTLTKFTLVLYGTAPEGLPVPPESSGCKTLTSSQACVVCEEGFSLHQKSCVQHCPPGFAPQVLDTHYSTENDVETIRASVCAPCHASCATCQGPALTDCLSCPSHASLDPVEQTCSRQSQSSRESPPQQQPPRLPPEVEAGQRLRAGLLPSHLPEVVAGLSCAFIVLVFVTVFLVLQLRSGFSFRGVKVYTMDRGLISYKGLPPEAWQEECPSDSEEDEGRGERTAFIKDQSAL
The list shows a part of the results. The true hit rate is not given.

{"sequenceInput": "CARSKRSRLLAGNASASA [FS-3208]", "furin cleavage Z-score": 6.91}
{"sequenceInput": "CARSKRRHRTAGNASASA [FS-3086]", "furin cleavage Z-score": 6.42}
{"sequenceInput": "CARSKRSALRAGNASASA [FS-1930]", "furin cleavage Z-score": 9.58}
{"sequenceInput": "CARSELSPLLAGNASASA [HC490]", "furin cleavage Z-score": 0.877}
